Test: inhibitors of TNFa-induced NFkB p65 translocation, primary screen, imaging, HUVEC, MLSMR starter and 10KST1 sets (AID 438);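 further: compound added about 3h40 before a 20 min TNFalpha stimulation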
Conditions: HUVEC TNFa-induced p65 nuclear translocation; measured here: nuclei count (cytotoxicity indicator), at 2.08 µM
OBSERVABLE: cell count
// no unit string in output, number only

For the compound Cc1cc(NC(=O)c2ccc(Cl)cc2)no1 , report cell count.
206

For the compound O=C(NC1CCCCCCC1)C1CCN(c2nc3ccccc3o2)CC1 , report cell count.
737

For the compound CCCc1cc(C(=O)Nc2ccccc2C(=O)OC)no1 , report cell count.
864

----------
Molecular target: Voltage-gated potassium channel subunit beta-2 (Rattus norvegicus) (UniProt P62483)
Sequence (P62483 whole entry, looked up): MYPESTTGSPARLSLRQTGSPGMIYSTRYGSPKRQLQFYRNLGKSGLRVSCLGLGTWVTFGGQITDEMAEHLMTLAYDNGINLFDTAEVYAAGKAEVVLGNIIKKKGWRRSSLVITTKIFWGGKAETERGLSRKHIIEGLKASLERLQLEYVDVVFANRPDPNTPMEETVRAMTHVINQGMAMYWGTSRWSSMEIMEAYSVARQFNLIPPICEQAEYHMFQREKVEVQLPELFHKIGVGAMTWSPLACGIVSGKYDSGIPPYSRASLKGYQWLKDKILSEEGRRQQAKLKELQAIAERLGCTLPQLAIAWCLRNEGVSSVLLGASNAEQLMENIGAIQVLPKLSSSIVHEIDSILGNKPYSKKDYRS
Test: inhibitors of rat Kvbeta2 reductase activity – biochemical, NADPH fluorescence, primary screen (AID 622);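 further: slope of raw intensity against log time taken from 70 to 1610 s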
Conditions: recombinant KvBeta, 4-cyanobenzaldehyde reduction, at 10 µM, stronger effect = higher value
OBSERVABLE: fluorescence slope
// no unit string in output, number only

| COMPOUND | fluorescence slope |
| --- | --- |
| CC(=O)c1cccc(NC(=O)CCNS(=O)(=O)c2cccc3nsnc23)c1 | -0.539 |
| C=CCOC(=O)CC(NC(=O)c1ccccc1)c1ccccc1 (stereo not given) | -0.382 |
| O=C(Cc1nn[nH]n1)NCCC1=CCCCC1 | -0.567 |

For the compound CCN1CCN(c2nc3c(c(=O)n(C)c(=O)n3C)n2Cc2cccc3ccccc23)CC1 , report fluorescence slope.
-0.46

For the compound CCN(Cc1cc2cc(OC)ccc2[nH]c1=O)C(=O)Cc1ccc(OC)cc1 , report fluorescence slope.
-0.549

For the compound Clc1cccc(Cl)c1COc1ccncc1 , report fluorescence slope.
-0.516

For the compound CSc1nc(N2CCOCC2)c2ccccc2n1 , report fluorescence slope.
-0.601

Values compiled from PubChem BioAssay.
